# System: PC-3
# protocol notes: NCI tumour cell line growth inhibition, 48 h
Calls of active or inactive are those of the source. Rule as the data show it: active = GI50 up to about 1.1 µM and inactive = higher.
Result category, one only: y for active, n for inactive

Observe how each entry below is paired with its result.
• C1=C(N2CCOCC2)/C(=C2\SC(=N/c3ccccc3)/C(=N\c3ccccc3)N2c2ccccc2)CC1 = n
• Cc1ccc(C(=O)NC2C(=O)NC(C(C)C)C(=O)N3CCCC3C(=O)N(C)CC(=O)N(C)C(C(C)C)C(=O)OC2C)c2c1Oc1c(c(C(=O)NC3C(=O)NC(C(C)C)C(=O)N4CCCC4C(=O)N(C)CC(=O)N(C)C(C(C)C)C(=O)OC3C)c3nc(-c4ccccc4)c(=O)oc3c1C)N2 (stereo unspecified) = y
• COc1c(O)cc2c(c1O)C(=O)C1=C(CCCC1)C2=O = n
• O=P1(c2ccccc2)C2=CCC=CC2C(c2ccccc2)N1Cc1ccccc1 (stereo unspecified) = n
• O=c1c2c(nc3[nH]ccn13)CCC2 = n

Attention now turns to another entry.
Asked: What classification did Nc1nc(Cl)cc(NCC2(O)CC(CO)C2)n1 (stereo unspecified) end up with in this test?
Given back: n

---

# System: DMS-114
# protocol notes: NCI tumour cell line growth inhibition, 48 h
Calls of active or inactive are those of the source. Rule as the data show it: active = GI50 up to about 1.1 µM and inactive = higher.
assay readout: GI50

Look over these answered cases.
• CC(N)Cc1ccc(C(=O)Cl)cc1 (centres undefined) = > 100 µM (inactive)
• O=C(c1cccs1)N(C(=S)N1CCN(c2ccccc2)CC1)C1CCCCC1 = 58.2 µM (inactive)
• O=C(CC1Sc2ccccc2NC1=O)Nc1ccc([N+](=O)[O-])cc1[N+](=O)[O-] (centres undefined) = 14.2 µM (inactive)
• NC(=O)C(=O)Cc1nc2ccccc2s1 = > 100 µM (inactive)
• [N-]=[N+]=NC(CBr)c1cn([C@H]2C[C@H](O)[C@@H](CO)O2)c(=O)[nH]c1=O (some centres undefined) = > 100 µM (inactive)

Give me GI50 for each of these compounds, listed below.
1. Cc1c(C(=O)C/C(=N/NC(=O)CC#N)C(N)=O)[n+]([O-])c2ccccc2[n+]1[O-]
2. CN(C(=O)C12C3C4C1C1C2C3C41C(=O)N(C)C(C)(C)C)C(C)(C)C (centres undefined)
3. CC(=O)N(C)C=C1C(=O)N(C)C(=O)N(C)C1=O
4. COC1(OC)C2(Cl)C(Cl)=C(Cl)C1(Cl)C1C=CC=CC12 (centres undefined)
5. COc1cc(Cn2c3ccccc3c3cc(C)cc(OC)c32)cc2c1[nH]c1ccccc12
6. CCCCOCc1cc(CN2CCN(C)CC2)c(O)c2ncccc12
7. COc1ccc(C(=O)NCCN(C)C)c2nc3ccccc3nc12
8. Cc1ccc(S(=O)(=O)N/N=C2\C(=O)C3CC2C(Cl)C3Cl)cc1 (centres undefined)

Given back:
23.8 µM (inactive)
> 50 µM (inactive)
> 100 µM (inactive)
42.4 µM (inactive)
20 µM (inactive)
6.38 µM (inactive)
3.39 µM (inactive)
> 100 µM (inactive)

Asked: Give GI50 for the following compound: COC1OC(CO)C(O)C(NC(=O)N(C)N=O)C1O (centres undefined)
Given back: > 100 µM (inactive)

---

# System: OVCAR-5
# protocol notes: NCI tumour cell line growth inhibition, 48 h
Calls of active or inactive are those of the source. No stated cut-off is given here; in the data, active = GI50 up to about 1.1 µM and inactive = higher.
Outcomes you can answer with include only these: active, inactive

- O=c1c2cc(S(=O)(=O)O)ccc2nc(COc2ccc(Oc3ccc(Cl)cc3Cl)cc2)n1-c1ccc(Cl)cc1Oc1c(Cl)cccc1Cl: inactive
- CN1CCN(CC(=O)Nc2cccc3ccccc23)CC1: inactive
- Cc1ccc(C(=O)NC2C(=O)NC(C(C)C)C(=O)N3CCCC3C(=O)N(C)CC(=O)N(C)C(C(C)C)C(=O)OC2C)c2c1Oc1c(c(C(=O)NC3C(=O)NC(C(C)C)C(=O)N4CCCC4C(=O)N(C)CC(=O)N(C)C(C(C)C)C(=O)OC3C)c3nc(-c4ccccc4)c(=O)oc3c1C)N2 (centres undefined): active

Asked: How did this test come out for `NC(=O)c1sc2nc3ccccc3n2c1N` ?
Given back: inactive

Asked: Hi, do you know how CCC12C=C(C(=O)OC)N3c4ccccc4C4CCN(CCC1)C2C43 (centres undefined) came out in this test?
Given back: inactive

Asked: What was the test verdict on `Nc1nc(N)c2ncn(-c3ccccc3)c2n1` ?
Given back: inactive

Asked: I would be grateful if you could indicate the recorded call for `CCNC(=O)CCN(C(=O)O)S(=O)(=O)c1ccc(NC(=O)c2ccccc2)cc1` .
Given back: inactive

Asked: Can you look up the reported call for CN1C(=O)c2ccccc2OC12C=Cc1c(ccc3ccccc13)O2 (centres undefined) for me?
Given back: inactive

Asked: Which outcome was assigned to Cc1cn(CC2=NC3CCCCC3N2)c(=O)[nH]c1=O (centres undefined) in this test?
Given back: inactive

---

I'd appreciate it if you could supply GI50 values for the items below.
# Tested on: UACC-257
# protocol notes: NCI tumour cell line growth inhibition, 48 h
Activity calls are given as the source filed them. No stated cut-off is given here; in the data, active = GI50 up to about 1.1 µM and inactive = higher.

Recorded GI50, per entry:
* CC(=O)NC(CC(C)C)C(=O)NC(CC(C)C)C(=O)NC(C=O)CCCNC(=N)N (configuration not stated) | > 100 µM (inactive)
* O=C(Nc1ccccc1C(=O)O)C(=O)C(C(=O)c1ccccc1-c1ccccc1)C1OC(=O)c2ccccc21 (configuration not stated) | 16.7 µM (inactive)
* NC(=O)CCCC(NCc1c2ccccc2nc2ccccc12)C(=O)O (configuration not stated) | 85.1 µM (inactive)
* CC(=O)OCC1=C(C(=O)O)C(c2ccc3c(c2)OCO3)c2cc3c(cc2O1)OCO3 (configuration not stated) | > 100 µM (inactive)
* C=CCn1c(-c2ccc(Cl)cc2)cs/c1=N\c1ccccc1OC | 7.46 µM (inactive)
* O=C1c2ccccc2C(=O)c2c1ccc1c2N=C(c2ccc(Br)cc2)CC(c2cccc3ccccc23)N1 (configuration not stated) | > 100 µM (inactive)
* CC1=C/C(=N\NC(N)=S)C(C(O)(C(F)(F)F)C(F)(F)F)C(C)(C)C1 (configuration not stated) | > 10 µM (inactive)
* CCOC(NC(=O)CC)(C(F)(F)F)C(F)(F)F | > 100 µM (inactive)
* N#Cc1ccc(/C=C(/C(=O)c2ccccc2)c2ccccc2)cc1 | 12.4 µM (inactive)
* CC1OC2=N[C@@H]1C(=O)N[C@@H](C(C)C)C1=N[C@H](C(=O)N[C@@H](C(C)C)C3=N[C@H](C(=O)N[C@@H](C(C)C)C4=N[C@H](C(=O)N[C@H]2C(C)C)C(C)O4)C(C)O3)C(C)O1 (some centres not stated) | > 10 µM (inactive)

Quick request: GI50 for each listed item, please.
1. CCC12C=C(C(=O)OC)N3c4ccccc4C4CCN(CCC1)C2C43 (configuration not stated)
2. CNC1(c2cc3ccccc3s2)CCCCC1
3. COc1ccc(OC)c(CC(C)N)c1 (configuration not stated)
4. O=C1/C(=C\c2ccc(Cl)cc2)N=C(c2ccccc2)N1n1c(=O)cn[nH]c1=S
5. CSc1nc(C)c2c(n1)SCC2
6. COC1(OC)C2(Cl)C(Cl)=C(Cl)C1(Cl)C1C=CC=CC12 (configuration not stated)
7. CCC(C(=O)C(=O)C(CC)P1(=O)OC(C)(C)CN1C(C)(C)C)P1(=O)OC(C)(C)CN1C(C)(C)C (configuration not stated)
8. C=CCOCn1cc(F)c(=O)[nH]c1=O

Given back:
["34.2 µM (inactive)", "18.2 µM (inactive)", "> 100 µM (inactive)", "29.5 µM (inactive)", "> 10 µM (inactive)", "> 100 µM (inactive)", "> 100 µM (inactive)", "> 100 µM (inactive)"]

Would you be so kind as to report GI50 for each listed record?
1. CC(=O)OCC1OC(n2c(C#N)cc(=O)[nH]c2=O)CC1OC(C)=O (configuration not stated)
2. COc1cc(C2SCC(=O)N2c2cc(Cl)c(Cl)cc2Cl)cc(OC)c1OC (configuration not stated)
3. Nc1cc(Cl)ccc1SSc1ccc(Cl)cc1N
4. C[C@@H]1OC(=O)/C(=C\N(C)C)[C@H]2CC(=O)N(CCc3cn(S(=O)(=O)C(F)(F)F)c4ccccc34)C[C@H]12
5. CCOC(=O)[C@@H]1ON2O[C@H](OC3CCCCC3c3ccccc3)C[C@H]3OC(=O)[C@@H]1C32 (some centres not stated)

Given back:
1: > 100 µM (inactive); 2: 36.8 µM (inactive); 3: 17.6 µM (inactive); 4: > 100 µM (inactive); 5: > 100 µM (inactive)

Quick request: GI50 for each listed item, please.
1. CC(=O)Nc1ccc2[nH]c(C(=O)N3CC(CCl)c4c3cc([N+](=O)[O-])c3ccccc43)cc2c1 (configuration not stated)
2. CCc1nnc(S)n1/N=C\c1ccc(-c2ccccc2Cl)o1

Given back:
1. > 100 µM (inactive)
2. 53.5 µM (inactive)

Return reported GI50 values for all items listed beneath this line.
1. C=C1C[C@@H]2CC[C@@]34CC5O[C@H]6C(O[C@H]7CC[C@H](CC(=O)O[C@@H]8[C@@H](C)[C@@H]9O[C@@H]%10C[C@]%11(C[C@@H]%12O[C@]%13(C[C@H](C)[C@@H]%14O[C@@H]%15CC(C(O)CO)O[C@@H]%15C[C@@H]%14O%13)C[C@H](C)[C@@H]%12O%11)O[C@@H]%10C[C@@H]9O[C@H]8CC8O[C@@H](CC[C@@H]1O2)C[C@@H](C)C8(O)CO)O[C@@H]7[C@@H]6O3)[C@H]5O4 (some centres not stated)
2. Cc1ccc(N2C(N)=C(C#N)C(C#N)(C#N)C2c2ccccc2)cc1 (configuration not stated)

Given back:
["> 1 µM (active)", "15.6 µM (inactive)"]
